// values below are reported growth inhibition
- assay overview: NCI Yeast Anticancer Drug Screen. Data for the rad14 strain (AID 159);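 note: 0% = growth of vehicle-treated control cultures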
- condition context: S. cerevisiae rad14 strain growth inhibition; at 1.2 µM; active compounds read high
Compounds without any hit were thinned out: in the full panel of roughly 79,000, 15% have a hit.
Number in %, nothing else.

Worked cases, answers included:
In [3]: df
Out[3]:
                              sample_smiles           quantity  unit_info  reported_result
0  Cc1ccc(-n2cc(-c3ccc(Cl)cc3)c(C#N)c2N)cc1  growth inhibition          %               -1
1          COCCOC(=O)CCn1cc(F)c(=O)[nH]c1=O  growth inhibition          %               -3
2  O=C(NC(Nc1ccc(F)c(Cl)c1)(C(F)(F)F)C(F)(F)F)C(C(F)(F)F)C(F)(F)F  growth inhibition          %                9
3   O=C1c2cc([N+](=O)[O-])ccc2-c2cccc(F)c21  growth inhibition          %                5

Incoming: Output measured growth inhibition for this item: CC(=O)Oc1ccc2c(c1)Cc1cc(N=C3C=CC(=O)O3)ccc1-2
Outgoing: 16

Incoming: Return value of growth inhibition for input O=C(NCCCCCCCN1CCCCCCC1)C(C1CCCCC1)C1CCCCC1 , no commentary.
Outgoing: 72

Taken from PubChem BioAssay (NCI).
